B1: library; numbered along this chain (parent)
chain: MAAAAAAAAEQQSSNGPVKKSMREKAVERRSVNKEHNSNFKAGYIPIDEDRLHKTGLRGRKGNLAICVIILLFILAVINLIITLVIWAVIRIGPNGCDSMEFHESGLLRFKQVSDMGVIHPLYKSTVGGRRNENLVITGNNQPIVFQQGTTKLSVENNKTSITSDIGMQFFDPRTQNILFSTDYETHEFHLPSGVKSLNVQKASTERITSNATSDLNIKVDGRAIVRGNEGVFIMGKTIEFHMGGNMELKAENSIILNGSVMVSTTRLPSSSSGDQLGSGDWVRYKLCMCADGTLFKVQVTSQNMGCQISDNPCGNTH

Variants of: B1
Test: SGCB cell-surface expression functional score (HA stain, bin4 vs bin1, normalised to synonymous) (log10 ratio); higher = more cell-surface SGCB (functional)
Quick rule: SGCB cell-surface expression functional score (log10) of at least -0.1 means t, below that means f.

QUERY: // inclusive: SGCB cell-surface expression functional score (log10) at least -0.1? input: Q112S
RESULT: f

QUERY: Try this variant next: S21I
RESULT: t

QUERY: Lookup T265G
RESULT: t

QUERY: Same for P173N
RESULT: f

QUERY: Request: G139M
RESULT: f

QUERY: Further, for E49K ?
RESULT: t

QUERY: # iterate: F102W
RESULT: f

QUERY: Consider next the variant E230F in the same way.
RESULT: t

QUERY: Another variant to look at: M168D
RESULT: f

QUERY: Would you mind doing A6K as well?
RESULT: f

QUERY: Next entry: I239W
RESULT: t

QUERY: What about this variant? C290E
RESULT: t

QUERY: And for R130K ?
RESULT: t

QUERY: And for G96H ?
RESULT: f

QUERY: Query S273M next
RESULT: f
